Reference source for all entries: paper PMC8400955

assay: 7-day repeated-dose TK in dogs; type: in vivo; details: male, beagle, dog, plasma, po, 200 mg/kg/day, day 1, PO 200 mg/kg/day, M
PARAMETER: Cmax (ng/mL)
Lab book: enter the figure in ng/mL, no units written.

Input: Find the recorded Cmax belonging to C[C@]12CC[C@@H]3c4ccc(B(O)O)cc4C[C@@H](CCCCCCCCC[S+]([O-])CCCC(F)(F)C(F)(F)F)[C@H]3[C@@H]1CC[C@@H]2O (stereo partly shown) [ZB716, fulvestrant-3-boronic acid] and report it.
Output: 8430

* * *

assay: 7-day repeated-dose TK in dogs; type: in vivo; details: female, beagle, dog, plasma, po, 100 mg/kg/day, day 7, PO 100 mg/kg/day, F
PARAMETER: AUC(0-t) (ng·h/mL)
Lab book: enter the figure in ng·h/mL, no units written.

Input: Find the recorded AUC(0-t) belonging to C[C@]12CC[C@@H]3c4ccc(B(O)O)cc4C[C@@H](CCCCCCCCC[S+]([O-])CCCC(F)(F)C(F)(F)F)[C@H]3[C@@H]1CC[C@@H]2O (stereo partly shown) [ZB716, fulvestrant-3-boronic acid] and report it.
Output: 81100
